- Tested on: Mycobacterium tuberculosis
- Assay Summary: Antimycobacterial activity against isoniazid/rifampicin-resistant Mycobacterium tuberculosis isolate 16833 after 7 days by Alamar blue assay
- Type: functional
- Assay Context: isolate 16833, 168 h
Test Readout: MIC (µg/mL)
One number for each entry, in µg/mL.

Some entries whose results are on file:
{"Smiles Data": "O=C(NCc1ccc2c(c1)CN(c1ccc(F)cc1)C2)c1cc([N+](=O)[O-])cc([N+](=O)[O-])c1", "MIC [µg/mL]": 0.066}
{"Smiles Data": "O=C(NCc1ccc2c(c1)CCN(c1ccc(F)cc1)C2)c1cc([N+](=O)[O-])cc([N+](=O)[O-])c1", "MIC [µg/mL]": 0.074}
{"Smiles Data": "O=C(NCc1ccc2c(c1)CN(Cc1ccc(C(F)(F)F)cc1)C2)c1cc([N+](=O)[O-])cc([N+](=O)[O-])c1", "MIC [µg/mL]": 0.278}
{"Smiles Data": "O=C(NCc1ccc2c(c1)CCN(Cc1ccc(Cl)cc1)C2)c1cc([N+](=O)[O-])cc([N+](=O)[O-])c1", "MIC [µg/mL]": 0.143}
{"Smiles Data": "O=C(NCc1ccc2c(c1)CCN(c1ccc(C(F)(F)F)cc1)C2)c1cc([N+](=O)[O-])cc([N+](=O)[O-])c1", "MIC [µg/mL]": 0.152}

// next item, MIC requested
Asked: So what does the record say about MIC for `COc1ccc(CN2Cc3ccc(CNC(=O)c4cc([N+](=O)[O-])cc([N+](=O)[O-])c4)cc3C2)cc1` ?
Given back: 0.286
